Can you tell me WBC for the items I'm about to list?
Organism: Rattus norvegicus
Method Summary: Open TG-GATES - Regimen: Daily Repeat
Format: toxicity, organism-based, Sprague-Dawley
Set-up: regimen Daily Repeat, gender Male, age 6 weeks
Condition Label: in vivo, po, 0 mg/kg, 72 h, tissue Blood, route gavage, dose level Control, time 3 day
Answers are plain numbers, in x10_2/uL.

Use these answered entries as a reference point.
# Compound, Recorded Endpoint, Reported
records = [
    ("CC(CN1c2ccccc2Sc2ccccc21)N(C)C (stereo not given)", "WBC", 94),
    ("C1CCC(C(CC2CCCCN2)C2CCCCC2)CC1 (stereo not given)", "WBC", 89.3),
    ("Clc1c(Cl)c(Cl)c(Cl)c(Cl)c1Cl", "WBC", 102.9),
]

Items follow; give WBC for each.
1. C#C[C@]1(O)CC[C@H]2[C@@H]3CCC4=Cc5oncc5C[C@]4(C)[C@H]3CC[C@@]21C
2. O=C(O)Cc1ccccc1Nc1c(Cl)cccc1Cl

[out]
1. 80.8
2. 105.4

====

Assignment: determine reported KIDNEY_TOTAL for the given molecules.
Species: Rattus norvegicus
Method Summary: Open TG-GATES - Regimen: Daily Repeat
Format: toxicity, organism-based, Sprague-Dawley
Design: regimen Daily Repeat, gender Male, age 6 weeks
Condition Label: in vivo, po, 0 mg/kg, 72 h, tissue Kidney, route gavage, dose level Control, time 3 day

// worked examples, KIDNEY_TOTAL included
# Molecule, Reported
rows = [
    ("C1CCC(C(CC2CCCCN2)C2CCCCC2)CC1 (stereo not given) [PERHEXILINE]", "2.1 g"),
    ("CC(CN1c2ccccc2Sc2ccccc21)N(C)C (stereo not given) [PROMETHAZINE]", "2.1 g"),
    ("CN(C)[C@@H]1C(O)=C(C(N)=O)C(=O)[C@@]2(O)C(O)=C3C(=O)c4c(O)cccc4[C@@](C)(O)[C@H]3C[C@@H]12 [TETRACYCLINE]", "1.7 g"),
    ("CN1C(C(=O)Nc2ccccn2)=C(O)c2sc(Cl)cc2S1(=O)=O [LORNOXICAM]", "2.1 g"),
]

# per-item lookup of KIDNEY_TOTAL; items listed below
1. Clc1c(Cl)c(Cl)c(Cl)c(Cl)c1Cl [PERCHLOROBENZENE]
2. CC(=O)Nc1nnc(S(N)(=O)=O)s1 [ACETAZOLAMIDE]
3. Cc1cccc(Nc2ccccc2C(=O)O)c1C [MEFENAMIC ACID]
4. O=C(O)Cc1ccccc1Nc1c(Cl)cccc1Cl [DICLOFENAC]

[out]
1. 2.2 g
2. 2 g
3. 2 g
4. 2 g

Batch request: KIDNEY_TOTAL per item, same order as input.
1. CCOC(=O)[C@H](CCc1ccccc1)N[C@@H](C)C(=O)N1CCC[C@H]1C(=O)O
2. C#C[C@]1(O)CC[C@H]2[C@@H]3CCC4=Cc5oncc5C[C@]4(C)[C@H]3CC[C@@]21C [DANAZOL]

[out]
["2.2 g", "2 g"]

====

Hi there, I'd appreciate the recorded CRE for every entry that follows.
Species: Rattus norvegicus
Method Summary: Open TG-GATES - Regimen: Single
Format: toxicity, organism-based, Sprague-Dawley
Design: regimen Single, gender Male, age 6 weeks
Condition Label: in vivo, po, 0 mg/kg, 6 h, tissue Plasma, route gavage, dose level Control
State the result as a value with its unit after it.

Some entries whose results are on file:
# Compound, CRE
records = [
    ("CCOC(=O)[C@H](CCc1ccccc1)N[C@@H](C)C(=O)N1CCC[C@H]1C(=O)O", "0.5 mg/dL"),
    ("C#C[C@]1(O)CC[C@H]2[C@@H]3CCC4=Cc5oncc5C[C@]4(C)[C@H]3CC[C@@]21C", "0.1 mg/dL"),
    ("Clc1c(Cl)c(Cl)c(Cl)c(Cl)c1Cl", "0.4 mg/dL"),
    ("CN(C)[C@@H]1C(O)=C(C(N)=O)C(=O)[C@@]2(O)C(O)=C3C(=O)c4c(O)cccc4[C@@](C)(O)[C@H]3C[C@@H]12", "0.4 mg/dL"),
    ("CC(=O)Nc1nnc(S(N)(=O)=O)s1 [ACETAZOLAMIDE]", "0.1 mg/dL"),
]

Report CRE for every entry below.
1. C1CCC(C(CC2CCCCN2)C2CCCCC2)CC1 (stereo not given)
2. CN1C(C(=O)Nc2ccccn2)=C(O)c2sc(Cl)cc2S1(=O)=O
3. Cc1cccc(Nc2ccccc2C(=O)O)c1C

[out]
["0.1 mg/dL", "0.4 mg/dL", "0.3 mg/dL"]

I need CRE for every entry listed below, if you could help.
1. CC(CN1c2ccccc2Sc2ccccc21)N(C)C (stereo not given)
2. COc1cc([C@@H]2c3cc4c(cc3[C@@H](O[C@@H]3O[C@@H]5CO[C@@H](C)O[C@H]5[C@H](O)[C@H]3O)[C@H]3COC(=O)[C@H]23)OCO4)cc(OC)c1O [ETOPOSIDE]

[out]
1. 0.2 mg/dL
2. 0.6 mg/dL
